Biological target: T1, 4H2837-AA
T1 chain: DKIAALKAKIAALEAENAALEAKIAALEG
Test: two-hybrid library CCmax;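 also: natural log of median RNA to DNA barcode read ratio; higher means stronger binding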
Details: mean of both orientations
ASSAY READOUT: interaction score

Solved cases (5 shown):
BINDER: DKIAALEAKNAALKAEIAALKAEIAALEG [4H2505-AA]
interaction score: 1.03

BINDER: DKIAALKAENAALEAKIAALKAEIAALEG [4H2729-AA]
interaction score: 0.924

BINDER: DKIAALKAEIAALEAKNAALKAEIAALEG [4H2617-AA]
interaction score: 2.22

BINDER: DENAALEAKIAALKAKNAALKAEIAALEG [4H1401-AA]
interaction score: 1.61

BINDER: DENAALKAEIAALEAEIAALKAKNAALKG [4H1552-AA]
interaction score: -0.547

a: DKIAALEAKNAALEAKIAALEAEIAALKG [4H2466-AA]
b: DKIAALKAENAALKAEIAALEAEIAALKG [4H2754-AA]
Incoming: Select the item with the higher value of interaction score from the options a and b listed. Selection: enter the item's label.
Outgoing: b

A: DEIAALEAENAALKAKIAALKAEIAALKG [4H234-AA]
B: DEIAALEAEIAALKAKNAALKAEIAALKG [4H122-AA]
Incoming: Select the item with the higher value of interaction score from the options A and B listed. Provide the label of your selected option as the answer.
Outgoing: B
(B: 2.11, A: -1.08)
